- system_name: phospholipase C obtained from human thrombocytes
- assay_overview: In vitro test for determining the inhibition of phospholipase C obtained from human thrombocytes
- Type: biochemical
- conditions: pH 6, 37°, 5 minutes, phosphatidyl-[14C]-inositol; read-out: IC50
endpoint_label: IC50 (µM)
Use µM as the unit, but write only the number.

Input: Which IC50 reading was recorded for the molecule "CCCc1c(OCCCOc2cccc(NC(=O)c3nnn[nH]3)c2C#N)ccc(C(C)=O)c1O" ?
Output: 14

###

- system_name: phospholipase A2 obtained from human leucocytes
- assay_overview: In vitro test for determining the inhibition of phospholipase A2 obtained from human leucocytes
- Format: biochemical
- conditions: pH 7, 37°, one hour, 14C-oleic acid labelled E. coli phospholipids; read-out: IC50
endpoint_label: pIC50
Recall that pIC50 is obtained by taking minus log10 of the concentration measured in molar.

Input: Which pIC50 reading was recorded for the compound "CCCc1c(OCCCOc2cccc(NC(=O)C(=O)O)c2)ccc(C(C)=O)c1O" ?
Output: 4.64

Input: Which pIC50 reading was recorded for the compound CCN(CC)CCCC(C)Nc1c2ccc(Cl)cc2nc2ccc(OC)cc12 (stereo not drawn) [mepacrine, reference compound] ?
Output: 2.80

Input: Which pIC50 reading was recorded for the compound "CCCc1c(OCCCOc2cccc(NC(=O)c3nnn[nH]3)c2C#N)ccc(C(C)=O)c1O" ?
Output: 4.70

Input: Which pIC50 reading was recorded for the compound "CCCc1c(OCCCOc2cc(NC(=O)c3nnn[nH]3)c(C)cc2Br)ccc(C(C)=O)c1O" ?
Output: 5.00

Input: Which pIC50 reading was recorded for the compound "CCCc1c(OCCCOc2cccc(NC(=O)C(=O)O)c2C#N)ccc(C(C)=O)c1O" ?
Output: 4.52

Input: Which pIC50 reading was recorded for the compound "CCCc1c(OCCCOc2cc(NC(=O)C(=O)O)c(C)cc2Br)ccc(C(C)=O)c1O" ?
Output: 4.82
